test system: SW-620 colon; test: NCI tumour cell line growth inhibition, 48 h
Kindly supply the reported TGI values for the records listed here.

Example entries begin here.
INSERT INTO results (compound, test_system, test_result) VALUES
  ('Nc1nc(Cl)cc(NCC2CC(O)(CO)C2)n1 (stereo unspecified)', 'SW-620 colon', '> 100 µM'),
  ('CC(=O)OC1CC2C(C)(C)C(=O)C=C[C@]2(C)C2CCC3(C)C(=CCC3[C@H](CO)C[C@H](O)C(=O)C(C)(C)O)[C@]12C (stereo partly specified)', 'SW-620 colon', '41 µM'),
  ('COC1OC(=O)C(OC)C(OC)C1OC (stereo unspecified)', 'SW-620 colon', '> 100 µM');

Parameter requested: TGI. Apply to each item below.
1. CN1CCN(Cc2ccc(NC(=O)c3cncc(C#Cc4cncc5[nH]ncc45)c3)cc2C(F)(F)F)CC1
2. CSC(=N/N=C(\C)c1ccc(S(=O)(=O)N(C)c2ccccc2)cc1)SC
3. O=S1(=O)OCCOS(=O)(=O)C1S(=O)(=O)c1cccc2ccccc12

Response given:
1: 3.64 µM; 2: > 100 µM; 3: > 100 µM

====

tested on: RPMI-8226 leukemia; experiment: NCI tumour cell line growth inhibition, 48 h; in the data active = GI50 below about 0.43 µM; inactive = the rest
Hi! Could you answer with just one of these? Y = active, N = inactive

# count of solved cases: 5
INSERT INTO results (compound, test_system, qualitative_label) VALUES
  ('C[C@@H]1CC[C@H]2C(CN(C)CC3=C(C(F)(F)F)O[C@@H]4O[C@@]5(C)CC[C@H]6[C@H](C)CC[C@@H]3[C@@]46OO5)=C(C(F)(F)F)O[C@@H]3O[C@@]4(C)CC[C@@H]1[C@]32OO4', 'RPMI-8226 leukemia', 'N'),
  ('Cn1ccnc1C(=O)/C=C/c1ccc(CC(=O)Nc2cc(F)c(F)c(F)c2)cc1', 'RPMI-8226 leukemia', 'N'),
  ('Clc1ccc2c(NCCNc3nc(Cl)nc4ccccc34)ccnc2c1', 'RPMI-8226 leukemia', 'Y'),
  ('COc1ccc(C(=O)C(CN(C)C)c2ccccc2)cc1 (stereo not given)', 'RPMI-8226 leukemia', 'N'),
  ('C=C1C(=O)O[C@H]2[C@H]1CC/C(COC(=O)c1ccc(Br)cc1)=C\CC[C@@]1(C)O[C@@H]21', 'RPMI-8226 leukemia', 'N');

Challenge: Please share the test call associated with S=C1NC2=C(CCOc3c2ccc2ccccc32)C(c2ccc(Cl)cc2)N1 (stereo not given) .
Response given: N

Challenge: Please share the test call associated with CCOC(=O)CCC(NC(=O)c1ccc(Nc2nc3cc(N)cc(N)c3nc2-c2ccccc2)cc1)C(=O)OCC (stereo not given) .
Response given: N

Challenge: Please share the test call associated with `Cc1cccc(Cc2cnc(NC(=O)/C=C/c3ccco3)s2)c1` .
Response given: Y

Challenge: Please share the test call associated with CCCCOc1nc2ccccc2cc1C1CNC(=O)c2ccccc2N1 (stereo not given) .
Response given: N

Challenge: Please share the test call associated with `N#CSc1cc(-c2nc3ccccc3o2)ccc1N` .
Response given: N

Challenge: Please share the test call associated with COc1ccc(C2C3=C(COC3=O)N(CCO)c3cc4c(cc32)CCC4)cc1OC (stereo not given) .
Response given: N

====

tested on: COLO 205 colon; assay: NCI tumour cell line growth inhibition, 48 h; in the data active means GI50 below about 0.43 µM; inactive means the rest
Hi! Could you answer with just one of these? 1 (yes) (active), 0 (no) (inactive)

INSERT INTO results (molecule, qualitative_label) VALUES
  ('O=C(Nc1ccc(I)cc1F)c1cc(F)ccc1O', '0 (no)'),
  ('Nc1cc2ccncc2c2ccccc12', '0 (no)');

Challenge: Please share the test call associated with `Cn1cc(C2=C(c3cn(C)c4cc(Cl)ccc34)C(=O)NC2=O)c2ccccc21` .
Response given: 1 (yes)

Challenge: Please share the test call associated with CCCCOc1nc2ccccc2cc1C1CNC(=O)c2ccccc2N1 (stereo unspecified) .
Response given: 0 (no)

Challenge: Please share the test call associated with `CCC[CH2][Sn]1([CH2]CCC)[O]N=Cc2ccccc2[O]1` .
Response given: 0 (no)

Challenge: Please share the test call associated with `CCOC(=O)Nc1ccc2nc(Sc3ccc(Cl)cc3)sc2c1` .
Response given: 0 (no)

Challenge: Please share the test call associated with COC(=O)C([O][Ge]([CH3])([CH3])[CH3])c1ccccc1 (stereo unspecified) .
Response given: 0 (no)

Challenge: Please share the test call associated with `Cc1cncc2cccc(S(=O)(=O)N3CCCNC[C@@H]3C)c12` .
Response given: 0 (no)

Challenge: Please share the test call associated with CN(C)CC1CCCCCCCCCCC1=O (stereo unspecified) .
Response given: 0 (no)

Challenge: Please share the test call associated with S=C1NC2=C(CCOc3c2ccc2ccccc32)C(c2ccc(Cl)cc2)N1 (stereo unspecified) .
Response given: 0 (no)

Challenge: Please share the test call associated with `Clc1ccc2c(NCCNc3nc(Cl)nc4ccccc34)ccnc2c1` .
Response given: 0 (no)

Challenge: Please share the test call associated with `COc1cc2cc(C(=O)N3C[C@H](CCl)c4c3cc(O)c3ccccc43)[nH]c2c(OC)c1OC` .
Response given: 1 (yes)

Challenge: Please share the test call associated with `CCN(CC)CCn1nc2c3c(cccc3c1=O)-c1ccccc1-2` .
Response given: 0 (no)

Challenge: Please share the test call associated with `COC(=O)C12CC(NC(=O)c3csc([C@@H](C[C@H](C(C)C)N(C)C(=O)[C@@H](NC(=O)[C@H]4CCCCN4C)C(C)C)OC(C)=O)n3)(C1)C2` .
Response given: 1 (yes)

Challenge: Please share the test call associated with `CO[C@H]1/C=C/C=C/C=C/C[C@H](OC(=O)[C@@H](C)NC(=O)C2CCCCC2)[C@H](C)[C@@H](O)/C(C)=C\CCC2=CC(=O)C=C(NC(=O)C1)C2=O` .
Response given: 1 (yes)

Challenge: Please share the test call associated with `CCN(CC)c1ccc(/C=C2/NC(=O)NC2=O)cc1` .
Response given: 0 (no)

====

test system: SK-MEL-5 melanoma; experiment: NCI tumour cell line growth inhibition, 48 h
Kindly supply the reported TGI values for the records listed here.

Example entries begin here.
INSERT INTO measurements (molecule, recorded_endpoint, test_result) VALUES
  ('COc1nc2ncc([C@@H](O)[C@H](O)CO)nc2c(=O)[nH]1', 'TGI', '> 100 µM'),
  ('CCCCOc1nc2ccccc2cc1C1CNC(=O)c2ccccc2N1 (stereo unspecified)', 'TGI', '18.4 µM'),
  ('COc1ccc(C2=C(N)c3cc(OC)ccc3C2=O)cc1', 'TGI', '> 100 µM'),
  ('C(=N\Nc1nnc(-c2nnc(N/N=C/c3ccccc3)o2)o1)/c1ccccc1', 'TGI', '> 10 µM'),
  ('N#Cc1c(NC(=S)Nc2ccccc2)sc2c1CCCC2', 'TGI', '> 100 µM');

For the next question, use this molecule.
Entry `NC(=O)c1ccc(S(=O)(=NS(=O)(=O)c2ccccc2)c2ccc(C(N)=O)cc2)cc1` — recorded TGI = > 100 µM

====

system: NCI-H522 lung; assay: NCI tumour cell line growth inhibition, 48 h
RECORDED ENDPOINT: TGI

Example entries begin here.
INSERT INTO assay_data (molecule, test_result) VALUES
  ('CC(C)C(NCc1c2ccccc2nc2ccccc12)C(=O)O (stereo unspecified)', '91.2 µM'),
  ('CC(C)N(C(=O)C12C3C4C5C3C1(C(=O)N(C(C)C)C(C)C)C5C42)C(C)C (stereo unspecified)', '> 100 µM'),
  ('O=C1CCc2c(sc3ncnc(Nc4cccc(Br)c4)c23)C1', '6.17 µM');

Parameter requested: TGI. Apply to each item below.
1. NC(=S)c1cn(C2OC(CO)C(O)C2O)c2ncnc(N)c12 (stereo unspecified)
2. Cc1cc(C)c(N)c(CO)c1
3. O=C1CCC(=O)C(C(=O)CCC(=O)Nc2ccc(Cl)cc2)C1 (stereo unspecified)
4. O=C(Nc1ccc(Oc2cccc(Cl)c2)c(Cl)c1)c1cccnc1
5. CCc1cc2c(c3[nH]ccc13)[C@@H](C)C[C@H]2C

Response given:
1. 0.554 µM
2. > 100 µM
3. > 100 µM
4. 5.89 µM
5. 31.9 µM

Parameter requested: TGI. Apply to each item below.
1. CC(C)=CCCC1(C)C=Cc2c(ccc3c2[nH]c2cc(O)c(C)cc23)O1 (stereo unspecified)
2. CC1[C@@H]2C[C@@H]3O[C@@]34[C@H]3CCC5Cc6nc7c(nc6C[C@@]5(C)C3(O)CC(=O)[C@@]24CO[C@]12OC(C)(C)CC2O)CC1CC[C@@H]2C3=C[C@H]4O[C@@]5(O[C@@](C)(CO)C[C@@H]5O)C(C)[C@@]4(O)[C@]3(C)[C@@H](O)CC2[C@]1(C)C7 (stereo partly specified)
3. Cn1cc(C2=C(c3cn(C)c4cc(Cl)ccc34)C(=O)NC2=O)c2ccccc21

Response given:
["7.2 µM", "0.653 µM", "0.345 µM"]
